- Target or test system: P-glycoprotein (P-gp) (Homo sapiens, UniProt P08183)
- Construct: endogenous in cells; host or cells: Caco-2 TC7 cell monolayers
- Sequence (P08183 whole entry): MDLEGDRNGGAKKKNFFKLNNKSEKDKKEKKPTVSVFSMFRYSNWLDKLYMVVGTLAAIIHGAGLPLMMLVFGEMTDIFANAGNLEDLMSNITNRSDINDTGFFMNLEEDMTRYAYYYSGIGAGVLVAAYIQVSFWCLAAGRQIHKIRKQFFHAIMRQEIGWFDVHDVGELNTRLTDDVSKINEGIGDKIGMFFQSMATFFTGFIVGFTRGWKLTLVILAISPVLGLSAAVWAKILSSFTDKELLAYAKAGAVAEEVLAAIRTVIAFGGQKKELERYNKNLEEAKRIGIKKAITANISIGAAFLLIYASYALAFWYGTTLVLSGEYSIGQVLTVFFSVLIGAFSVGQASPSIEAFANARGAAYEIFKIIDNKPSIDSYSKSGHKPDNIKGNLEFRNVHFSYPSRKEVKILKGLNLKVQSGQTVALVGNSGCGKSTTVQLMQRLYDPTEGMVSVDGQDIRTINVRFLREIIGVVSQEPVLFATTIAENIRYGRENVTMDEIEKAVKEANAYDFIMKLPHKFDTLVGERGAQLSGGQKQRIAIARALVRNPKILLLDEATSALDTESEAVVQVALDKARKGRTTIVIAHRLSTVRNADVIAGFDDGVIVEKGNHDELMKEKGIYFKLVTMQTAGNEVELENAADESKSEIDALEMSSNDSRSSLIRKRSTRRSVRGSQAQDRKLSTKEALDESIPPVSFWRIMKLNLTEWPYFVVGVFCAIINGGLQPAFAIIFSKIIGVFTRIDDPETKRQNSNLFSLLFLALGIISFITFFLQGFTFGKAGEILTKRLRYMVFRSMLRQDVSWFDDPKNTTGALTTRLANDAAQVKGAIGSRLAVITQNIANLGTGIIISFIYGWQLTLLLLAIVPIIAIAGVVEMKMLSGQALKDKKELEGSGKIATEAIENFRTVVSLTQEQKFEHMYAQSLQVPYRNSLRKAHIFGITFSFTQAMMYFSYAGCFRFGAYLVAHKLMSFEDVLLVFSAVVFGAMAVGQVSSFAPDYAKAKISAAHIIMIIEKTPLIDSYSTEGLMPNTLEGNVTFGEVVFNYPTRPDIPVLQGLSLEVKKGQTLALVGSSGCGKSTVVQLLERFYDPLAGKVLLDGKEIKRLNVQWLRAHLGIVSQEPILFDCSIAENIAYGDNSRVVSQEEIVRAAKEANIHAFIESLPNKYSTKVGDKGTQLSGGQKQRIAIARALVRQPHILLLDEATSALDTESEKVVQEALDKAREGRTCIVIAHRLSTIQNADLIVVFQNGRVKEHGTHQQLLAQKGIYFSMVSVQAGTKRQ
- Assay overview: Caco-2 transport in the presence of verapamil (P-gp inhibitor)
- Assay type: in vitro ADME
- Particulars: human, Caco-2, pH 7.4, with verapamil (concentration not stated for this group); 20 μM epimedin, verapamil; read-out: reduction of efflux ratio
Readout label: efflux ratio at 5 h, 20 µM

Exercise: Any idea what its efflux ratio at 5 h, 20 µM is? The molecule is COc1ccc(-c2oc3c(CC=C(C)C)c(O[C@@H]4O[C@H](CO)[C@@H](O)[C@H](O)[C@H]4O)cc(O)c3c(=O)c2O[C@@H]2O[C@@H](C)[C@H](O)[C@@H](O)[C@H]2O[C@@H]2O[C@@H](C)[C@H](O)[C@@H](O)[C@H]2O)cc1 [epimedin C]
Solution: ~2.5

* * *

- Assay overview: Bidirectional transport (A-B and B-A) across Caco-2 cell monolayers
- Format: in vitro ADME
- Particulars: human, Caco-2; B-A direction, concentrations of 5–40 μM, HBSS pH 7.4; read-out: secretory permeability (PBA)
Answer each item with its documented Papp B→A at 5 h.

Exercise: Any idea what its Papp B→A at 5 h is? The compound is COc1ccc(-c2oc3c(CC=C(C)C)c(OC4O[C@H](CO)[C@@H](O)[C@H](O)[C@H]4O)cc(O)c3c(=O)c2OC2O[C@@H](C)[C@H](O)[C@@H](O)[C@H]2O[C@@H]2O[C@H](CO)[C@@H](O)[C@H](O)[C@H]2O)cc1 (stereo partly drawn) [epimedin A]
Solution: 1.29 to 1.89 ×10⁻⁶ cm/s

Exercise: Any idea what its Papp B→A at 5 h is? The compound is COc1ccc(-c2oc3c(CC=C(C)C)c(O[C@@H]4O[C@H](CO)[C@@H](O)[C@H](O)[C@H]4O)cc(O)c3c(=O)c2O[C@@H]2O[C@@H](C)[C@H](O)[C@@H](O)[C@H]2O[C@@H]2O[C@@H](C)[C@H](O)[C@@H](O)[C@H]2O)cc1 [epimedin C]
Solution: 1.2 to 2.28 ×10⁻⁶ cm/s

Exercise: Any idea what its Papp B→A at 5 h is? The compound is COc1ccc(-c2oc3c(CC=C(C)C)c(O[C@@H]4O[C@H](CO)[C@@H](O)[C@H](O)[C@H]4O)cc(O)c3c(=O)c2O[C@@H]2O[C@@H](C)[C@H](O)[C@@H](O)[C@H]2O[C@@H]2OC[C@@H](O)[C@H](O)[C@H]2O)cc1 [epimedin B]
Solution: 1.19 to 1.76 ×10⁻⁶ cm/s

* * *

- Target or test system: breast cancer resistance protein (BCRP) (Homo sapiens)
- Construct: endogenous in cells; host or cells: Caco-2 TC7 cell monolayers
- Sequence (Q9UNQ0 whole entry): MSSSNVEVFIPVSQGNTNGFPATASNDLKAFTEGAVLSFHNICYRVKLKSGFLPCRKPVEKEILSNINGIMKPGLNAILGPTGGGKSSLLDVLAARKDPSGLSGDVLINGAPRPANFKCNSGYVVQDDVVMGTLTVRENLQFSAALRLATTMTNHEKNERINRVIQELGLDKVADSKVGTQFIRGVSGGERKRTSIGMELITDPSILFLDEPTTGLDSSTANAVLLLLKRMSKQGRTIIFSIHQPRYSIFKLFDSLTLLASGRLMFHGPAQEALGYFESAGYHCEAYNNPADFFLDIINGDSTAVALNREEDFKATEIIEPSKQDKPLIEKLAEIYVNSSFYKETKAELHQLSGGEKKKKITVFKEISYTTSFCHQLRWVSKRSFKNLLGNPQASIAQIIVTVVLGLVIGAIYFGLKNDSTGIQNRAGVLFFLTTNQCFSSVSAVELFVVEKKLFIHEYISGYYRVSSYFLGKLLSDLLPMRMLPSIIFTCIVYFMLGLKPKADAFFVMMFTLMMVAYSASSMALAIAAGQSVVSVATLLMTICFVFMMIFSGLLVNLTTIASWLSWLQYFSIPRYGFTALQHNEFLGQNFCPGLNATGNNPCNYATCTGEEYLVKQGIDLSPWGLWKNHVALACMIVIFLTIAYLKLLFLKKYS
- Assay overview: Caco-2 transport in the presence of dipyridamole (BCRP inhibitor)
- Format: in vitro ADME
- Particulars: human, Caco-2, pH 7.4, with dipyridamole (concentration not stated for this group); 20 μM epimedin, dipyridamole
Readout label: fold reduction of efflux ratio at 5 h, 20 µM

Exercise: Any idea what its fold reduction of efflux ratio at 5 h, 20 µM is? The molecule is COc1ccc(-c2oc3c(CC=C(C)C)c(O[C@@H]4O[C@H](CO)[C@@H](O)[C@H](O)[C@H]4O)cc(O)c3c(=O)c2O[C@@H]2O[C@@H](C)[C@H](O)[C@@H](O)[C@H]2O[C@@H]2O[C@@H](C)[C@H](O)[C@@H](O)[C@H]2O)cc1 [epimedin C]
Solution: ~1.95
